Numbers sourced from the supplement of paper PMC12297408.

- Tested on: Plasmodium falciparum NF54/iGP1_RE9H ulg8 stage V gametocytes
- protocol text: gametocyte viability (luciferase signal relative to DMSO control) (% of DMSO control); higher = less gametocytocidal activity, active = 50 or less
- condition details: concentration: 10 µM; exposure time: 72 h
Permitted responses: active, inactive

Use these answered entries as a reference point.
INSERT INTO measurements (molecule, class_name) VALUES
  ('O=Nc1c(-c2c(O)[nH]c3ccccc23)[nH]c2ccccc12 [Indirubin-3''-monooxime]', 'inactive'),
  ('COc1cc2c(Nc3ccc(NC(=O)c4ccccc4)cc3)ncnc2cc1OCCCN1CCOCC1', 'inactive'),
  ('FC(F)c1nc2ccccc2n1-c1nc(N2CCOCC2)nc(N2CCOCC2)n1', 'inactive'),
  ('Cc1ccc([N+](=O)[O-])cc1S(=O)(=O)N(C)/N=C/c1cnc2ccc(Br)cn12', 'inactive'),
  ('Nc1ncnc2c1c(-c1cccc(OCc3ccccc3)c1)cn2C1CC(CN2CCCC2)C1 (centres undefined)', 'inactive'),
  ('CN(C)c1ccc(-c2nc3ncc(Cl)c(N4CCN(CC(=O)Nc5nccs5)CC4)c3[nH]2)cc1', 'inactive');

Data request: Identify the outcome logged in this assay for the molecule shown: "N#C/C(=C\c1ccc(O)c(O)c1)C(N)=O"
Data returned: inactive

Data request: Identify the outcome logged in this assay for the molecule shown: Nc1nc2ncnc-2c[nH]1 [2-Aminopurine]
Data returned: inactive

Data request: Identify the outcome logged in this assay for the molecule shown: "COc1ccc(-c2ccc3c(N4CCOCC4)nc(N4C[C@@H](C)O[C@@H](C)C4)nc3n2)cc1CO"
Data returned: inactive

###

- Tested on: Plasmodium falciparum NF54/iGP1_RE9H ulg8 stage V gametocytes
- protocol text: gametocyte viability (luciferase signal relative to DMSO control) (% of DMSO control); higher = less gametocytocidal activity, active = 50 or less
- condition details: concentration: 1 µM; exposure time: 72 h
Structures can show the parent of a compound that is named as a salt.
Parameter: gametocyte viability. Scope: all listed entries.
// no unit, no text: just the number

INSERT INTO assay_data (compound, numeric_result) VALUES
  ('O=C1CCc2c(ccc3ccccc23)O1 [Splitomicin]', 86.2),
  ('O=C([C@@H](Cc1cccc(C(F)(F)F)c1)NS(=O)(=O)c1cc(F)c2c(c1)CCNC2)N1CCCC1 [(R)-PFI-2 (hydrochloride)]', 85.2),
  ('O=C(NCc1ccccc1)c1c(/N=C/c2c(O)ccc3ccccc23)sc2c1CCCC2', 103),
  ('COc1cc(OC)c2c(=O)[nH]c(-c3cc(C)c(OCCO)c(C)c3)nc2c1', 94.1);

Could you now look at the following compound, please?
Data request: Output reported gametocyte viability of the compound "CCCCNNC(=O)c1ccc(Br)cc1" on Plasmodium falciparum NF54/iGP1_RE9H ulg8 stage V gametocytes.
Data returned: 84

###

- Tested on: Plasmodium falciparum NF54/iGP1_RE9H ulg8 stage V gametocytes
- protocol text: gametocyte viability (luciferase signal relative to DMSO control) (% of DMSO control); higher = less gametocytocidal activity, active = 50 or less
- condition details: concentration: 10 µM; exposure time: 72 h
parameter: gametocyte viability
// no unit, no text: just the number

INSERT INTO assay_data (compound, numeric_result) VALUES
  ('O=C(NO)c1cccc(C(=O)NCCc2ccccc2)c1', 64.6),
  ('CC(C)N(CCCNC(=O)Nc1ccc(C(C)(C)C)cc1)C[C@H]1O[C@@H](n2cc(Br)c3c(N)ncnc32)[C@H](O)[C@@H]1O', 49.3),
  ('CCCC(=O)[O-].[Na+] [Sodium Butyrate]', 84.7);

Data request: Specify reported gametocyte viability for the compound shown: "Nc1ncn([C@@H]2O[C@H](CO)[C@@H](O)[C@H]2O)c(=O)n1"
Data returned: 90.8

Data request: Specify reported gametocyte viability for the compound shown: "CCCCOc1ccc(CC(=O)NO)cc1"
Data returned: 94.8

Data request: Specify reported gametocyte viability for the compound shown: "COc1cc2c(cc1-c1c(C)noc1C)ncc1[nH]c(=O)n([C@H](C)c3ccccn3)c12"
Data returned: 97.8

Data request: Specify reported gametocyte viability for the compound shown: "Cn1c(=O)cc(C(=O)Nc2ccc3c(c2)OCCO3)c2ccccc21"
Data returned: 86.7

Data request: Specify reported gametocyte viability for the compound shown: "CN1CCN(c2ccc(-c3cccc(CN4CCOCC4)c3)cc2NC(=O)c2c[nH]c(=O)cc2C(F)(F)F)CC1"
Data returned: 94.1

Data request: Specify reported gametocyte viability for the compound shown: "COc1cc(OC)c2c(=O)[nH]c(-c3cc(C)c(OCCO)c(C)c3)nc2c1"
Data returned: 92.5

Data request: Specify reported gametocyte viability for the compound shown: "COc1nnc2ccc(N3CCC(c4ccc(OCCN5CCN(C)C(=O)[C@H]5C)cc4)CC3)nn12"
Data returned: 90.3
